- Procedure details: label from the status in PepcDB records
Recorded endpoint: protein production

Below, each entry is followed by its recorded protein production result.
Chain sequence | Experimental value
MYSLFQEGRKMKNTAFLITKNHYPKDYRLKKSPDSDSAMGVAKRILAEVMIFRRVPETISLCGTGCQKCASPHLPKIISAVNKNEPVTFILPAFPGKSPNPEKVLGHLPDHAERLSLNFLGTLCQRIKNFYTPGIKIILCSDGRVFSDVVGMNESDVTAYQLELDRLIKEMSLADLSTFNLDYFYKDLHFVQMREELMKSYGQSLDFLKQKIRNGAKPSASPDEQEANRMYSGITRFLFEDAMHAGQTKSRTAIQKESRFKAYEVIRRSNAWSALIAERFPKAVRLSIHPQTCGSKKLGIRLIGNESWMTPWHGVAVESNKGYVLLRRSEAEALGAKLICSSDGRHSHYQLMAEVSYELLEHHHHHH | not failed
MVTREEFVARFGGVFEHSPFIAERAYDAGGAGLELTAKAVHGALCAQFRVASEAERLGVLRAHPDLAGKLAIAGELTADSRNEQAGAGLDRLSPQEHARFTQLNSAYTEKFGFPFIIAVKGLNRHDILSAFDTRIDNNAAQEFATATGQVEKIAWLRLASMLPEG | not failed
MSPPGQHYAQADAPQRPVLVQESSYLQLSSEAAEFVTQCQICGKPCQLADEPLWTTLATTIPSTIGAMAVSSAPHLPSGSFEWLTAGRVDPGSRVVVLCPTVAHCRAVASHGADVLAVHRDPDTAEKLNRIPGVMAVCGSPESLPLNSSSFDAVLVHQGFHELAPGLALPEIARVLRPGSVLGVSWLVRDDTVPWVKRLAALLRTVDENAMSGDYGTESVHELISSKYFPEDEHTTKRLWVPVNRDSLVAMAAARPAVRALDSDARSNVLTKVAALADDSAGTSGLRLPYQLECWRAWVDHDELTTPIRPHDDGLTITL | failed
MPTATDARGHTVTLDHRPRRILSLVPSQTELLAHLDLADEVVGITRFCERPEHWRSEKAIVGGTKQVDFDTVRDLDPDLVLANHEENTAEDVETLDEIAPVFVTEVKTVEDALGMIRTVGTLTETSDQTSTLVGKIISRFESLPDFTSLRAAYLIWRDPYMTIGNDTFIHDVMHWGGLENAYGDQTRYPDVTIADLAEQDLDVVLCSSEPFPFHEKDAFTADLREALPDTSVEIVDGQPFSWYGPRLLDTPSYLKTLRERLPTPAPRR | failed
MSLRTQLIAVLIDDYSNPWFIDLIQSLSDVLTPKGYRLSVIDSLTSQAGTDPITSALSMRPDGIIIAQDIPDFTVPDSLPPFVIAGTRITQASTHDSVANDDFRGAEIATKHLIDLGHTHIAHLRVGSGAGLRRFESFEATMRAHGLEPLSNDYLGPAVEHAGYTETLALLKEHPEVTAIFSSNDITAIGALGAARELGLRVPEDLSIIGYDNTPLAQTRLINLTTIDDNSIGVGYNAALLLLSMLDPEAPHPEIMHTLQPSLIERGTCAPREGHHHHHH | not failed

Please state, for each entry, its recorded protein production.
1. MALRVTFVAAARSSPLLAERFDDERPLDQAGWNEALRAAGDLLPLAAAELRYCSPTPRSRATGDAIGCAPLSQLALRACDMGRWRGLTLGEAMAREPAAVDAWLADPRSAPHGGESLLGFITRVGGWLDTRPGEDGDRIVAVAEPSVIRAALVYALKAPPGTYWNLDVRPLSTTTVTGRAGRWSLRFEGTPDQGATRPAFRGGNPL
2. MILLEGSYREMGRQYGGLMKTELLSEYAMLTKTLEDRGYSLDYLRWYASAGTQFQPERMKEITRGMAETTGLSEADLSILYYGPALYISMPAGCSYLAVWDTYTTDGSVVLSRNWDLPDLLDPFNPYYVLAVCRPTDGSNGVATFGPAGSRPETLMNSAGLFIADDNSGLAPVGQDDRPDLISEFFRLMLDYSDLDGLKTGVLTTRPDVAWIVDVGGPDGAYVFEVGLNETKVRIGDGVVAAANHFVDPSWDLTTPPGEHSLTRYANLLSQAEAAKGSIDAEEMMQIRDVLMTDDGATFRHSELFGYPYSSNHQVVFVPATRTLWMKVIDLDWQKVELAPLFAM
3. MMYTNDNRIVMTLDAGGTNFVFSAIQGGKEIADPVVLPACADCLDKCLGNLVEGFKAIQAGLPEAPVAISFAFPGPADYQAGIIGDLPNFPSFRGGVALGPFLEDIFGIPVFINNDGSLFAYGEALTGVLPEINRRLREAGSTKRYKNLLGVTLGTGFGAGVVIDGELLRGDNAAGGYVWCLRNKKYPEYIVEESVSIRAVMRVYAERSGDAGARTPKEIFEIAEGIRPGNREAAIAAFEELGEMAGDALASAITLIDGLIVIGGGLSGASKYILPVLLKEMNAQTGMMDGARFGRLQKEVYDLDEEKSFAGFARGEAVEVLVPGTNRKVGYDPCKRIGVTFSKQGANRSIAMGAYVFALNHLSK
4. MLPTKINLIRLRRELAMLRRIRRVMEEKREVILHYITSMAAEYVRYQREVYSELERIYQNYYLGVAAEGIERARAFTAPAEGSLEVDVSTRTLFAVKTPVFSLREETVPPLPLPAGSDPKLVQSILDMRSILDKLLKLAEYEETLQRLISELKDTQRLINALDYVILPSYQNAIKFIKLVLEDRMREDFVRLKIIKRKMEAKTQLEHHHHHH
5. MVTGIVFHEEYLKHEQSPTHPERRERLAYTMDQLREEGIFESERIVLLEPFKASLEDVLEVHTEEYVRFLEMESKKGGIIDFDTNIPVGVFDRALLAAGGAIRAAQAVLNKECENAFAMIRPPGHHAKPYIGAGFCYLNNMAIMVKWLLKQGFERIAILDWDAHHGDGTQEIFYNDDRVLFISTHQMPLYPGTGYPEECGTGKGEGYTVNIPLPPGTGDEGYMMVIDEIIEPVVNEFKPQFIAISAGQDNHFTDPITSLALTARGYAEMMRRAVAMAEKHCDGRLVAVLEGGYSVEGALPYTNLGIIAAMAGFDLSAIREPENYLPELLWRKRDSALVKLKHNIEDVKRVHSKYWKCFK

output:
1. failed
2. failed
3. not failed
4. not failed
5. failed

---

- Procedure details: label from the status in PepcDB records
Recorded endpoint: protein production

Below, each entry is followed by its recorded protein production result.
Chain sequence | Experimental value
MNEQRLSMRLERVATHVPAGARLADIGSDHGYLPVALLNRGAVSAAVAGEVALTPFYAAERTVRENDLDQQISVRLADGLAAIEPTDRITAISLCGMGGETIRDILESGKARLSGQERLILQPNGGEQPLRVWLMEHNYRILDEEVLRENRFDYEIIVAERTGPMIYTAEQLYFGPIQMQTRSPAFLLKWQRLLGKKHKALSNFARARKAVPEEKMQDLAQQIRWITALLN | failed
MRNPNDVFHLAIPARDLDEAYDFYVTKLGCKLARRYPDRITLDFFGDQLVCHLSDRWDREVSMYPRHFGITFRDKKHFDNLYKLAKQRGIPFYHDLSRRFEGLIEEHETFFLIDPSNNLLEFKYYFDDRMMY | not failed
MTIYTLSHGSLKLDVSDQGGVIEGFWRDTTPLLRPGKKSGVATDASCFPLVPFANRVSGNRFVWQGREYQLQPNVEWDAHYLHGDGWLGEWQCVSHSDDSLCLVYEHRSGVYHYRVSQAFHLTADTLTVTLSVTNQGAETLPFGTGWHPYFPLSPQTRIQAQASGYWLEREQWLAGEFCEQLPQELDFNQPAPLPRQWVNNGFAGWNGQARIEQPQEGYAIIMETTPPAPCYFIFVSDPAFDKGYAFDFFCLEPMSHAPDDHHRPEGGDLIALAPGESTTSEMSLRVEWL | not failed
MKHLNIYIMLLGFSIFTGATFNLAKYTVGYFSPSSSAAWRFGLAAAVMLIILIFTEGIKKSQLRKNAVSYIVLGIIGIFGFNALFFVGLKYTSPVNGALIMGLNPLLTAILARIILKDNMTKKQVLGIFFAFIGVLLVITQGSIETIKTLSISGGDLIIFTGNVCWALYGVLGRRFVKDGTPLSTTTYTMVIGAVSLIVVSLFTSKPVSLSNIPIGVWGAIAFMAFFTSVLGYLWWNQGIKEIGASKTSLFFNLVPVVTMIISFAVGTPIKVFQVIGAVLVILGVLTASGVIRIPKYNTKEQSAI | failed
MTEIKYKVITKDAFALPYTIIKAKNQPTKGVIVYIHGGGLMFGKANDLSPQYIDILTEHYDLIQLSYRLLPEVSLDCIIEDVYASFDAIQSQYSNCPIFTFGRSSGAYLSLLIARDRDIDGVIDFYGYSRINTEPFKTTNSYYAKIAQSINETMIAQLTSPTPVVQDQIAQRFLIYVYARGTGKWINMINIADYTDSKYNIAPDELKTLPPVFIAHCNGDYDVPVEESEHIMNHVPHSTFERVNKNEHDFDRRPNDEAITIYRKVVDFLNAI | failed

Please state, for each entry, its recorded protein production.
1. MRVMRICLVGLGAVGQGFLRAVQMKGEYLRERYGLDIRFTGVADSSGALHDPDGLDIRGVLEHKKRAGLGSHPSGYEGMTGDELLDEAEYDCLVEATPTNIEDGEPGRSLVLKAMGDGKHVVTSNKGHLALFYSELMEAASEAGVEFMFEASVGGAMPIINLARETLASCTIESVIGILNGTTNFILSRMASEGSSYRQALIEAQELGIAETNPAQDVEGTDAACKAVIIANSILGRPCTLRDVRVEGITGITQGAIELAAQEGYLIKLIAEISGDRLEVGPRLVRMGSPYAVDGTLNMATLRTDLAGEVTAVGRGAGSLETASAMLTDTITIWRKSGGR
2. MNAVGLVAFATVGSLKAIDADFDVLGVAVLGVLTALGGGATRDVLVGSVPAMLQSTTDVGFALAGVVVAVVVARRVGTEVLAHPVVDVPDAVGLAAFAASGALVGVGADVSPFGVVVLGTTTGVGGGLVSDVLLQRVPFVLTEDLYATCAIAGSTVLWVATASGLGATIAAAAGAGVTLAVRLLAIRFEWALPTVRLNAPA

output:
failed
failed
